Assayed System: P2X purinoceptor 7 (Mus musculus, UniProt Q9Z1M0)
Sequence (Q9Z1M0 whole entry): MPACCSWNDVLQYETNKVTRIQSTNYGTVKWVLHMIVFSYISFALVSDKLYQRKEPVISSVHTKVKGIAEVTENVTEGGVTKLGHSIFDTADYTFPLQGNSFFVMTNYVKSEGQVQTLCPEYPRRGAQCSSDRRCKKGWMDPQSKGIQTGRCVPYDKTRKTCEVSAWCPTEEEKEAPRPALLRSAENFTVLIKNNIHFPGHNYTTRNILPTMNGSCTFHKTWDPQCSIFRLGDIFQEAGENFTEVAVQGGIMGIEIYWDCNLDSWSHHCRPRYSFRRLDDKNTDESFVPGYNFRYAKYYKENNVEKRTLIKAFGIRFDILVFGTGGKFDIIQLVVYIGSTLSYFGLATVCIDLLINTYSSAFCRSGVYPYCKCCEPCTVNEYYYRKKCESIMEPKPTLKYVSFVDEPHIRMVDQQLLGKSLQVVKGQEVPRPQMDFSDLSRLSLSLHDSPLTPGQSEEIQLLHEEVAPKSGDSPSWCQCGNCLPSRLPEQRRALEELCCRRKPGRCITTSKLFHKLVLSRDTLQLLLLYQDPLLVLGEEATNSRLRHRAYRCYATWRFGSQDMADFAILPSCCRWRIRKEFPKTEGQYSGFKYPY
Experiment Description: Antagonist activity at P2X7 receptor in LPS-stimulated mouse whole blood assessed as inhibition of Bz-ATP-induced IL-1beta release incubated for 30 mins after LPS stimulation for 1 hr followed by agonist addition measured after […] by ELISA
Type: tissue-based
Measurement Type: pIC50
Entry type: numeric. Quantity: pIC50, the -log10 of concentration in molar units.

Q. Suppose we examine the compound C[C@@H]1c2ncn(-c3ccc(F)cn3)c2CCN1C(=O)c1cccc(C(F)(F)F)c1Cl ; what pIC50 value has been reported?
A. 6.80
